These data points were gathered from PubChem BioAssay.

# ASSAY PROCEDURE: inhibition of PAO1 biofilm formation – strain PAO1, LB-PBS medium, absorbance 600 nm, primary screen (AID 1176); note: test concentration not given here
# SETUP CONDITIONS: P. aeruginosa PAO1 growth/biofilm, A600, 12 h; higher = more signal
Returns 1 if the recorded z-score is greater than or equal to 0.5, and -1 otherwise.

>  <COMPOUND>
COC(=O)C1=CC(CCCO)=CC(c2ccc(CN3CCCC3)cc2)N(Cc2cccc(OC(F)(F)F)c2)C=C1C(=O)OC (configuration not stated)

>  <ASSIGNED LABEL>
-1

$$$$
>  <COMPOUND>
COCCOC(=O)N1C(=O)[C@@]2(c3cc(C#CCNC(N)=O)ccc31)[C@H](C(N)=O)[C@H]1C(=O)O[C@H](c3ccccc3)[C@H](c3ccccc3)N1[C@@H]2c1ccccc1OCCO

>  <ASSIGNED LABEL>
1

$$$$
>  <COMPOUND>
COC(=O)[C@]1(CCS(=O)(=O)c2ccccc2)N=C(c2ccc(OCCCO)cc2)O[C@@H]1c1ccccc1N=[N+]=[N-]

>  <ASSIGNED LABEL>
1

$$$$
>  <COMPOUND>
O=C(O)[C@@H]1[C@@H]2C(=O)N(c3ccccc3)C(=O)[C@@H]2C[C@@H]1Sc1ccccc1

>  <ASSIGNED LABEL>
1

$$$$
>  <COMPOUND>
CC(C)(C)OC(=O)COc1cccc(C(=O)CCN2CCOCC2)c1

>  <ASSIGNED LABEL>
-1

$$$$
>  <COMPOUND>
COc1ccc([Si](C)(C)[C@H]2[C@H](CC(=O)N(CCO)Cc3ccccc3)O[C@@]3(C(=O)N(C)c4c(Br)cc(C)cc43)[C@@H]2C)cc1

>  <ASSIGNED LABEL>
1

$$$$
>  <COMPOUND>
CCOC(=O)C[C@H]1[C@H](OC(=O)c2ccc(C(=O)c3ccccc3)cc2)[C@@H](NC(=O)CC(C)C)c2cc(OCCCO)ccc2N1C(=O)c1ccccc1

>  <ASSIGNED LABEL>
1

$$$$

---

Recorded composite z-score by entry
# ASSAY PROCEDURE: probe aNOTCH3 binding on compound microarray – biochemical, small-molecule microarray, 635/667 nm fluorescence, primary screen (AID 1120);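 note: probe is a biotin-tagged antibody raised against NOTCH3 rather than NOTCH3 protein; score merges spot fluorescence near 667 nm with spot signal to noise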
# SETUP CONDITIONS: higher = more signal
PROPERTY NAME: composite z-score

>  <COMPOUND>
O=C1C[C@]2(c3ccc([N+](=O)[O-])cc3)C(=O)N(C3CC3)c3cc(CO)ccc3[C@H]2N1CC12CC3CC(CC(C3)C1)C2

>  <PROPERTY NAME>
composite z-score

>  <NUMERIC VALUE>
-0.213

$$$$
>  <COMPOUND>
CCOC(=O)C[C@H]1[C@H](OC(=O)c2ccccc2-c2ccccc2)[C@@H](NC(=O)c2ccc3ccccc3n2)c2cc(OCCCO)ccc2N1C(=O)Cc1ccc(OC)cc1

>  <PROPERTY NAME>
composite z-score

>  <NUMERIC VALUE>
0.033

$$$$
>  <COMPOUND>
COC(=O)c1c(CC[C@@H](CO)NC(=O)N[C@@H](C)Cn2cc(-c3ccccn3)nn2)oc(C(C)=O)c1C(=O)OC

>  <PROPERTY NAME>
composite z-score

>  <NUMERIC VALUE>
0.11

$$$$
>  <COMPOUND>
COc1ccc(C(=O)Nc2ccc(CN3C(=O)[C@]4(O[C@H](CC(=O)N5Cc6ccccc6C[C@H]5CO)[C@@H]([Si](C)(C)c5ccc(OC)cc5)[C@@H]4C)c4ccccc43)cc2)cc1

>  <PROPERTY NAME>
composite z-score

>  <NUMERIC VALUE>
-0.0377

$$$$
>  <COMPOUND>
CS(=O)(=O)CCOC(=O)C1=CC(CCCO)=CC(c2ccc(CN3CCCC3)cc2)N(Cc2sc3ccccc3c2Cl)C=C1C(=O)OCCS(C)(=O)=O (stereo unspecified)

>  <PROPERTY NAME>
composite z-score

>  <NUMERIC VALUE>
0.439

$$$$
>  <COMPOUND>
COC(=O)[C@@]1(Cc2ccc(OC)cc2)[C@H]2c3cc(C(=O)N4CCCC4)n(CCO)c3C[C@H]2CN1C(=O)c1ccccc1

>  <PROPERTY NAME>
composite z-score

>  <NUMERIC VALUE>
0.302

$$$$

---

# TARGET OR SYSTEM: Focal adhesion kinase 1 (Homo sapiens)
# ASSAY PROCEDURE: PTK2 protein binding on printed compound slides – biochemical, small-molecule microarray, 635/667 nm fluorescence, BSA, DTT, primary screen (AID 1130);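 note: composite of spot emission at 667 nm and signal to noise over triplicate slides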
# SETUP CONDITIONS: 635 nm fluorescence, higher = more signal
# reported composite z-score; entries follow

>  <COMPOUND>
COC(=O)C1=CC(CCCO)=CC(c2cccs2)N(Cc2cccc(OC(F)(F)F)c2)C=C1C(=O)OC (stereo not drawn)

>  <TARGET OR SYSTEM>
Focal adhesion kinase 1 (Homo sapiens)

>  <composite z-score>
2.18

$$$$
>  <COMPOUND>
CC(C)[Si](C#C[Si](C(C)C)(C(C)C)C(C)C)(O[C@H](c1ccccc1)c1cn(Cc2ccccc2)nn1)C(C)C

>  <TARGET OR SYSTEM>
Focal adhesion kinase 1 (Homo sapiens)

>  <composite z-score>
0.23

$$$$
>  <COMPOUND>
COC(=O)C1(CC(C)C)C=C2C(=C(c3ccccc3)C(=O)C2C)CN1 (stereo not drawn)

>  <TARGET OR SYSTEM>
Focal adhesion kinase 1 (Homo sapiens)

>  <composite z-score>
0.879

$$$$
>  <COMPOUND>
Cc1ccc(N2C(=O)c3ccccc3[C@@H](C(=O)NCCCN(C)C)[C@@H]2c2ccc(CO)cc2)nc1

>  <TARGET OR SYSTEM>
Focal adhesion kinase 1 (Homo sapiens)

>  <composite z-score>
-0.736

$$$$
>  <COMPOUND>
NC(=O)[C@H]1[C@@H]2C(=O)O[C@@H](c3ccccc3)[C@@H](c3ccccc3)N2[C@@H](c2ccc(OCCO)cc2)[C@]12C(=O)Nc1ccc(C#CCCO)cc12

>  <TARGET OR SYSTEM>
Focal adhesion kinase 1 (Homo sapiens)

>  <composite z-score>
0.798

$$$$
>  <COMPOUND>
C=C[C@H](C)[C@H](OC(=O)Nc1ccc(SC)cc1)c1ccc(OCCO)cc1

>  <TARGET OR SYSTEM>
Focal adhesion kinase 1 (Homo sapiens)

>  <composite z-score>
0.0085

$$$$
>  <COMPOUND>
C=CCNC(=O)[C@@H]1[C@H]2C(=O)O[C@H](c3ccccc3)[C@H](c3ccccc3)N2[C@H](c2ccccc2OCCO)[C@@]12C(=O)Nc1ccc(C#CCC(C(=O)OC)C(=O)OC)cc12

>  <TARGET OR SYSTEM>
Focal adhesion kinase 1 (Homo sapiens)

>  <composite z-score>
0.978

$$$$
>  <COMPOUND>
CCCCN1CC=CC23O[C@@H]4/C=C\CCCOC(=O)C4[C@H]2C(=O)N(CCO)[C@@H]3C1=O (stereo partly drawn)

>  <TARGET OR SYSTEM>
Focal adhesion kinase 1 (Homo sapiens)

>  <composite z-score>
0.101

$$$$

---

# ASSAY PROCEDURE: small molecules captured by biotinylated probe aFST – biochemical, small-molecule microarray, fluorescence 635/667, stem cell growth factor project, primary screen (AID 1086);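 note: score merges 667 nm fluorescence with signal-to-noise of each printed compound spot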
# SETUP CONDITIONS: higher = more signal
PROPERTY NAME: composite z-score

>  <MOLECULE>
[N-]=[N+]=NCc1ccccc1C[C@@]1(C(N)=O)N=C(c2ccc(OCCCO)cc2)O[C@@H]1c1ccccc1

>  <NUMERIC VALUE>
0.249

$$$$
>  <MOLECULE>
CC(C)C(CO)N1C(=O)[C@@H]2C3C(=O)OCCC/C=C\[C@H]3OC23C=CCN(Cn2nnc4ccccc42)C(=O)[C@@H]13 (some centres undefined)

>  <NUMERIC VALUE>
0.013

$$$$
>  <MOLECULE>
COc1ccc([Si](C)(C)[C@@H]2[C@@H](CCO)O[C@]3(C(=O)N(Cc4ccccc4)c4ccc(N5CCOC5=O)cc43)[C@H]2C)cc1

>  <NUMERIC VALUE>
0.152

$$$$
>  <MOLECULE>
COC(=O)[C@@]1(Cc2ccc(OC)cc2)[C@H]2c3cc(C(=O)N4CCCC4)n(CCc4c[nH]c5ccc(OC)cc45)c3C[C@H]2CN1C(=O)c1ccccc1

>  <NUMERIC VALUE>
1.55

$$$$
>  <MOLECULE>
C=CCNC(=O)[C@@H]1[C@H]2C(=O)O[C@H](c3ccccc3)[C@H](c3ccccc3)N2[C@H](c2ccc(O)cc2)[C@@]12C(=O)N(C(=O)OCCOC)c1ccc(C#CC3=CCCCC3)cc12

>  <NUMERIC VALUE>
0.668

$$$$
>  <MOLECULE>
COc1ccc(CCNC(=O)[C@@H]2c3ccccc3C(=O)N(C3CCCCC3)[C@H]2c2ccc(CO)cc2)cc1

>  <NUMERIC VALUE>
0.246

$$$$
>  <MOLECULE>
C=C(COC)C(=O)CC[C@@H](OC(C)=O)c1cccc(OCCO)c1

>  <NUMERIC VALUE>
-0.204

$$$$
>  <MOLECULE>
O=C1OCCC=C[C@H]2OC34C=CCN(c5ccc6ccccc6c5)C(=O)[C@H]3N(CCCO)C(=O)[C@@H]4C12 (some centres undefined)

>  <NUMERIC VALUE>
-0.723

$$$$
>  <MOLECULE>
O=C(NCCN1CCOCC1)[C@@H]1c2ccccc2C(=O)N(C2Cc3ccccc3C2)[C@H]1c1ccc(CO)cc1

>  <NUMERIC VALUE>
-0.768

$$$$
>  <MOLECULE>
CCCCC(CC)C(O)C1C=CC2C(=O)N(c3ccccc3)C(=O)C2N1Nc1ccc(C#N)cc1 (centres undefined)

>  <NUMERIC VALUE>
1.66

$$$$
>  <MOLECULE>
CCOC(=O)C[C@H]1[C@H](OC(=O)c2ccc(C(=O)c3ccccc3)cc2)[C@@H](NC(=O)c2ccc3ccccc3n2)c2cc(OCCCO)ccc2N1C(=O)Cc1ccc(OC)cc1

>  <NUMERIC VALUE>
0.121

$$$$
>  <MOLECULE>
C=CC[C@@]1(C(=O)NCCCOC)N=C(c2ccc(OCCCO)cc2)O[C@@H]1c1ccccc1

>  <NUMERIC VALUE>
0.74

$$$$
>  <MOLECULE>
C=C(/C(=C/C[C@H](OC(=O)c1ccncc1)c1ccc(CO)o1)c1cnc2ccccc2c1)C(C)C

>  <NUMERIC VALUE>
0.106

$$$$
>  <MOLECULE>
CCCC=C(CCC)[C@@H](NS(=O)(=O)CC12CCC(CC1=O)C2(C)C)c1ccc(C(=O)OC)cc1 (some centres undefined)

>  <NUMERIC VALUE>
0.974

$$$$
>  <MOLECULE>
C=CCN1C(=O)[C@]2(CCS(=O)(=O)c3ccccc3)N=C(c3ccc(OCCCO)cc3)O[C@@H]2c2ccccc21

>  <NUMERIC VALUE>
0.454

$$$$
>  <MOLECULE>
CC(C)NC(=O)[C@@]1(c2ccc([N+](=O)[O-])cc2)CC(=O)N(C2CCCCC2)[C@@H]1c1ccc(CO)cc1

>  <NUMERIC VALUE>
-0.114

$$$$
>  <MOLECULE>
NC(=O)[C@@]1(Cc2ccccc2)COC(c2ccc(OCCCO)cc2)=N1

>  <NUMERIC VALUE>
0.252

$$$$
>  <MOLECULE>
COCCOC(=O)N1C(=O)[C@@]2(c3cc(C#CC4(O)CCCCCC4)ccc31)[C@H](C(=O)N1CCc3cc(OC)c(OC)cc3C1)[C@H]1C(=O)O[C@H](c3ccccc3)[C@H](c3ccccc3)N1[C@@H]2c1ccc(OCCO)cc1

>  <NUMERIC VALUE>
0.198

$$$$
>  <MOLECULE>
COc1cc(NN2C(C(O)c3ccco3)C=CC3C(=O)N(C)C(=O)C32)cc(OC)c1OC (centres undefined)

>  <NUMERIC VALUE>
0.775

$$$$
>  <MOLECULE>
Cc1ccc(S[C@]2(C(=O)NCC(F)(F)F)CC(=O)N(Cc3cc(C(F)(F)F)cc(C(F)(F)F)c3)[C@@H]2c2ccc(CO)cc2I)cc1

>  <NUMERIC VALUE>
-0.666

$$$$
>  <MOLECULE>
CCOC(=O)C1=C[C@@H](C(C)C)N(S(=O)(=O)c2ccc(C)cc2)[C@H]1c1ccc(C(F)(F)F)cc1

>  <NUMERIC VALUE>
1.69

$$$$
>  <MOLECULE>
COCCOC(=O)N1C(=O)[C@@]2(c3cc(C#CC4(O)CCCCCC4)ccc31)[C@H](C(=O)Nc1nc3ccccc3s1)[C@H]1C(=O)O[C@H](c3ccccc3)[C@H](c3ccccc3)N1[C@@H]2c1ccc(O)cc1

>  <NUMERIC VALUE>
1.47

$$$$
>  <MOLECULE>
CC(CO)N1C(=O)[C@]2(C)C3C(=O)OCCC/C=C\[C@H]3OC23C=CCN(c2ccc(Cl)cc2)C(=O)[C@@H]13 (some centres undefined)

>  <NUMERIC VALUE>
-0.456

$$$$
>  <MOLECULE>
CC(C)C(CO)N1C(=O)[C@@H]2C3C(=O)OCCC/C=C\[C@H]3OC23C=CCN(c2ccc4ccccc4c2)C(=O)[C@@H]13 (some centres undefined)

>  <NUMERIC VALUE>
-0.412

$$$$
>  <MOLECULE>
COC(=O)[C@@]1(Cc2ccc(OC)cc2)[C@H]2c3cc(C(=O)N(C)C)n(Cc4ccc(C)o4)c3C[C@H]2CN1C(=O)c1ccccc1

>  <NUMERIC VALUE>
1.16

$$$$
>  <MOLECULE>
O=C1O[C@@H](c2ccccc2)[C@@H](c2ccccc2)N2[C@@H](c3ccc(OCCO)cc3)[C@]3(C(=O)Nc4ccc(C#CC5=CCCCC5)cc43)[C@@H](C(=O)NC[C@H](O)c3ccccc3)[C@H]12

>  <NUMERIC VALUE>
0.126

$$$$
>  <MOLECULE>
C#CCN([C@@H](Cc1ccccc1)C(=O)OC)[C@@H](/C=C/C1CC1)[C@H](O)Cc1ccccc1

>  <NUMERIC VALUE>
-0.283

$$$$
>  <MOLECULE>
COC(=O)[C@@]1(Cc2ccc(F)cc2)[C@H]2c3cc(C(=O)N4CCCC4)n(CCc4c[nH]c5ccccc45)c3C[C@H]2CN1C(=O)c1ccccc1

>  <NUMERIC VALUE>
1.05

$$$$
>  <MOLECULE>
C=CC[C@@H](OC(=O)Nc1ccc(OC)cc1)c1ccc(O)c(F)c1

>  <NUMERIC VALUE>
-0.535

$$$$
